Biological target: S. aureus SPase (Staphylococcus aureus)
Sequence (P0A070 whole entry): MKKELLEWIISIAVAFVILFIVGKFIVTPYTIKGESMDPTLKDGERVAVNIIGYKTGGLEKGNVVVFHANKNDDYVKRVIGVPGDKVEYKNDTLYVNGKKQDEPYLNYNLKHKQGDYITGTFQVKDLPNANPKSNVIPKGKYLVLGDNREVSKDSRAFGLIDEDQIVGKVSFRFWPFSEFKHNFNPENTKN
Assay: biochemical
pIC50: −log10 of the molar value. Square brackets hold non-standard residues; d marks the D form. Peptide text beside a SMILES is read from it. * marks the point of attachment. ξ: configuration not given here. boroAla((+)-pinanediol) = C[C@H](N*)B1O[C@@H]2C[C@@H]3C[C@@H](C3(C)C)[C@]2(C)O1; Biphenylcarbonyl(4'-Bu) = CCCCc1ccc(-c2ccc(C(=O)*)cc2)cc1; X1 = C[C@H](N*)B1OC2C[C@@H]3C[C@@H](C3(C)C)[C@]2(C)O1; X13 = CCCCN1CCC(c2ccc(C(=O)*)cc2)CC1; NMeThr(3ξ) = CN[C@H](C(=O)O)C(C)O; Myristoyl = CCCCCCCCCCCCCC(=O)*; X9 = COC(=O)CN1C[C@@H](N*)C1=O; Tle = CC(C)(C)[C@H](N)C(=O)O; Lauroyl = CCCCCCCCCCCC(=O)*; Dab = NCC[C@H](N)C(=O)O; Abu = CC[C@H](N)C(=O)O; Dap = NC[C@H](N)C(=O)O; boroGly = OB(O)CN*; βAla = NCCC(=O)O
Response key: yes (1) means pIC50 >= 7; no (0) means pIC50 < 7.

[
  {
    "compound": "CCCCN1CCC(c2ccc(C(=O)N[C@@H](CCN)C(=O)N[C@H](C(=O)N[C@@H](C)C(=O)N[C@@H](CCCCN)C(=O)N[C@@H](C)B3O[C@@H]4C[C@@H]5C[C@@H](C5(C)C)[C@]4(C)O3)[C@@H](C)O)cc2)CC1 [Compound 244] (X13-[Dab]TAK-{boroAla((+)-pinanediol)})",
    "label": "no (0)"
  },
  {
    "compound": "CCCCc1ccc(-c2ccc(C(=O)N[C@@H](CCCCN)C(=O)N3CCC[C@H]3C(=O)N[C@@H](C)C(=O)N[C@@H](CCCCN)C(=O)N[C@@H]3CN(CC(=O)OC)C3=O)cc2)cc1 [Compound 258] ({Biphenylcarbonyl(4'-Bu)}-KPAK-X9)",
    "label": "no (0)"
  },
  {
    "compound": "CCCCc1ccc(-c2ccc(C(=O)N[C@@H](CN)C(=O)N[C@@H](CCCCN)C(=O)N[C@@H](C)C(=O)N[C@@H](CCCCN)C(=O)N[C@@H](C)B3O[C@@H]4C[C@@H]5C[C@@H](C5(C)C)[C@]4(C)O3)cc2)cc1 [Compound 184] ({Biphenylcarbonyl(4'-Bu)}-[Dap]KAK-{boroAla((+)-pinanediol)})",
    "label": "no (0)"
  },
  {
    "compound": "CCCCc1ccc(-c2ccc(C(=O)NCCC(=O)N[C@@H](CCCCN)C(=O)N[C@H](C(=O)N[C@H](C(=O)N[C@@H](CC(N)=O)C(=O)N[C@@H](C)B3OC4C[C@@H]5C[C@@H](C5(C)C)[C@]4(C)O3)C(C)C)[C@@H](C)O)cc2)cc1 (some centres unmarked) [Compound 212] ({Biphenylcarbonyl(4'-Bu)-βAla}-KTVN-X1)",
    "label": "yes (1)"
  },
  {
    "compound": "CCCCCCCCCCCC(=O)N[C@@H](CCCCN)C(=O)N[C@H](C(=O)N[C@@H](C)C(=O)N[C@@H](CCCCN)C(=O)N[C@@H](C)B1OC2C[C@@H]3C[C@@H](C3(C)C)[C@]2(C)O1)[C@@H](C)O (some centres unmarked) [Compound 141] (Lauroyl-KTAK-X1)",
    "label": "yes (1)"
  },
  {
    "compound": "CCCCc1ccc(-c2ccc(C(=O)NCCC(=O)N[C@@H](CCCCN)C(=O)N[C@H](C(=O)N[C@@H](C)C(=O)N[C@H](C(=O)N[C@@H](C)B3OC4C[C@@H]5C[C@@H](C5(C)C)[C@]4(C)O3)C(C)(C)C)[C@@H](C)O)cc2)cc1 (some centres unmarked) [Compound 211] ({Biphenylcarbonyl(4'-Bu)-βAla}-KTA[Tle]-X1)",
    "label": "yes (1)"
  },
  {
    "compound": "CCCCc1ccc(-c2ccc(C(=O)NCCC(=O)N[C@@H](CCCCN)C(=O)N[C@H](C(=O)N[C@@H](CC)C(=O)N[C@@H](CC(N)=O)C(=O)N[C@@H](C)B3OC4C[C@@H]5C[C@@H](C5(C)C)[C@]4(C)O3)[C@@H](C)O)cc2)cc1 (some centres unmarked) [Compound 206] ({Biphenylcarbonyl(4'-Bu)-βAla}-KT[Abu]N-X1)",
    "label": "yes (1)"
  },
  {
    "compound": "CCCCCCCCCCCCCC(=O)N[C@H](CO)C(=O)N[C@H](C)C(=O)NCC(=O)N(C)[C@H](C(=O)N[C@@H](C)C(=O)N[C@@H](CC(C)C)C(=O)NCB(O)O)C(C)O (some centres unmarked) [Compound 122] (Myristoyl-[dS][dA]G[NMeThr(3ξ)]AL-boroGly)",
    "label": "yes (1)"
  },
  {
    "compound": "CCCCc1ccc(-c2ccc(C(=O)NCCC(=O)N[C@@H](CCCCN)C(=O)N[C@H](C(=O)N[C@@H](C)C(=O)N[C@@H](CCC(=O)O)C(=O)N[C@@H](C)B3OC4C[C@@H]5C[C@@H](C5(C)C)[C@]4(C)O3)[C@@H](C)O)cc2)cc1 (some centres unmarked) [Compound 195] ({Biphenylcarbonyl(4'-Bu)-βAla}-KTAE-X1)",
    "label": "yes (1)"
  }
]

---

Quick reference: pIC50 of the listed items.
Molecular target: E. coli SPase (Escherichia coli, UniProt P00803)
Sequence (P00803 whole entry): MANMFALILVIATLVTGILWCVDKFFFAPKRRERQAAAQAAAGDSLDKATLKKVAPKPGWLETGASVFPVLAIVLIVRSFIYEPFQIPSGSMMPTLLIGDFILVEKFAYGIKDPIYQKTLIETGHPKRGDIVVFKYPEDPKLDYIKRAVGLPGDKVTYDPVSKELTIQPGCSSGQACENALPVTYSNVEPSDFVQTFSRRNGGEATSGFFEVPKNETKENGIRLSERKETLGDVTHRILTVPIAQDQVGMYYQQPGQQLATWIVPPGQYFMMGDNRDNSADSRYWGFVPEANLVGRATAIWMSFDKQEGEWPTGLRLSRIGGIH
Experiment: Biochemical SPase activity assay (fluorogenic peptide substrate), E. coli enzyme
pIC50: −log10 of the molar value. Square brackets hold non-standard residues; d marks the D form. Peptide text beside a SMILES is read from it. * marks the point of attachment. ξ: configuration not given here. boroAla((+)-pinanediol) = C[C@H](N*)B1O[C@@H]2C[C@@H]3C[C@@H](C3(C)C)[C@]2(C)O1; Biphenylcarbonyl(4'-Bu) = CCCCc1ccc(-c2ccc(C(=O)*)cc2)cc1; X1 = C[C@H](N*)B1OC2C[C@@H]3C[C@@H](C3(C)C)[C@]2(C)O1; Benzoyl(4-(4-Cl-Ph)) = O=C(c1ccc(-c2ccc(Cl)cc2)cc1)*; X17 = O=C(/C=C/C=C/C12CC3CC(CC(C3)C1)C2)*; NMeY = CN[C@@H](Cc1ccc(O)cc1)C(=O)O; NMeT = CN[C@H](C(=O)O)[C@@H](C)O; Thr(3ξ) = CC(O)[C@H](N)C(=O)O; Decanoyl = CCCCCCCCCC(=O)*; boroAla = C[C@H](N*)B(O)O; Orn = NCCC[C@H](N)C(=O)O; Dab = NCC[C@H](N)C(=O)O; Abu = CC[C@H](N)C(=O)O; Dap = NC[C@H](N)C(=O)O; boroGly = OB(O)CN*; ξP = O=C(O)C1CCCN1; βAla = NCCC(=O)O
test.readout: pIC50

[
  {
    "compound": "CC(C)C[C@H](NC(=O)[C@H](C)NC(=O)[C@H](CN)NC(=O)[C@H](CN)NC(=O)c1ccc(-c2ccc(Cl)cc2)cc1)C(=O)N[C@@H](C)B1O[C@@H]2C[C@@H]3C[C@@H](C3(C)C)[C@]2(C)O1 [Compound 172] ({Benzoyl(4-(4-Cl-Ph))}-[Dap][Dap]AL-{boroAla((+)-pinanediol)})",
    "readout.number": 7.70
  },
  {
    "compound": "CCCCc1ccc(-c2ccc(CN[C@@H](CCN)C(=O)N[C@H](C(=O)N[C@@H](C)C(=O)N[C@@H](CCCCN)C(=O)N[C@@H](C)B3OC4C[C@@H]5C[C@@H](C5(C)C)[C@]4(C)O3)[C@@H](C)O)cc2)cc1 (some centres unmarked)",
    "readout.number": 7.66
  },
  {
    "compound": "CCCCc1ccc(-c2ccc(C(=O)N[C@@H](CCCN)C(=O)N[C@H](C(=O)N[C@@H](CC)C(=O)N[C@@H](CCCCN)C(=O)N[C@@H](C)B3OC4C[C@@H]5C[C@@H](C5(C)C)[C@]4(C)O3)C(C)O)cc2)cc1 (some centres unmarked) [Compound 150] ({Biphenylcarbonyl(4'-Bu)}-[Orn][Thr(3ξ)][Abu]K-X1)",
    "readout.number": 8.22
  },
  {
    "compound": "C[C@H](NC(=O)[C@H](CCCCN)NC(=O)[C@H](C)NC(=O)[C@@H](NC(=O)[C@H](CN)NC(=O)c1ccc(-c2ccc(Cl)cc2)cc1)[C@@H](C)O)B1OC2C[C@@H]3C[C@@H](C3(C)C)[C@]2(C)O1 (some centres unmarked) [Compound 167] ({Benzoyl(4-(4-Cl-Ph))}-[Dap]TAK-X1)",
    "readout.number": 8.28
  },
  {
    "compound": "CCCCc1ccc(-c2ccc(C(=O)N[C@@H](CCN)C(=O)N[C@H](C(=O)N[C@@H](C)C(=O)N[C@@H](CCCCN)C(=O)N[C@@H](C)B3OC4C[C@@H]5C[C@@H](C5(C)C)[C@]4(C)O3)[C@@H](C)O)nc2)cc1 (some centres unmarked)",
    "readout.number": 7.54
  },
  {
    "compound": "CCCCc1ccc(-c2ccc(C(=O)NCCC(=O)N[C@@H](CCCCN)C(=O)N(C)[C@H](C(=O)N[C@@H](C)C(=O)N[C@@H](CC(N)=O)C(=O)N[C@@H](C)B3OC4C[C@@H]5C[C@@H](C5(C)C)[C@]4(C)O3)[C@@H](C)O)cc2)cc1 (some centres unmarked) [Compound 192] ({Biphenylcarbonyl(4'-Bu)-βAla}-K[NMeT]AN-X1)",
    "readout.number": 7.57
  },
  {
    "compound": "C[C@H](NC(=O)[C@H](CCCCN)NC(=O)[C@H](C)NC(=O)[C@@H](NC(=O)[C@H](CCN)NC(=O)/C=C/C=C/C12CC3CC(CC(C3)C1)C2)[C@@H](C)O)B1O[C@@H]2C[C@@H]3C[C@@H](C3(C)C)[C@]2(C)O1 [Compound 240] (X17-[Dab]TAK-{boroAla((+)-pinanediol)})",
    "readout.number": 7.55
  },
  {
    "compound": "CCCCc1ccc(-c2ccc(CC(=O)N[C@@H](CCN)C(=O)N[C@H](C(=O)N[C@@H](C)C(=O)N[C@@H](CCCCN)C(=O)N[C@@H](C)B3OC4C[C@@H]5C[C@@H](C5(C)C)[C@]4(C)O3)[C@@H](C)O)cc2)cc1 (some centres unmarked)",
    "readout.number": 8.00
  },
  {
    "compound": "CCCCc1ccc(-c2ccc(C(=O)N[C@H](CO)C(=O)N[C@H](C)C(=O)NCC(=O)N3CCCC3C(=O)N[C@@H](C)C(=O)N[C@@H](CC(N)=O)C(=O)NCB(O)O)cc2)cc1 (some centres unmarked) [Compound 117] ({Biphenylcarbonyl(4'-Bu)}-[dS][dA]G[ξP]AN-boroGly)",
    "readout.number": 6.52
  },
  {
    "compound": "CCCCc1ccc(-c2ccc(C(=O)N[C@@H](CCCCN)C(=O)N3CCC[C@H]3C(=O)N[C@@H](C)C(=O)N[C@@H](CC(N)=O)C(=O)N[C@@H](C)B(O)O)cc2)cc1 [Compound 158] ({Biphenylcarbonyl(4'-Bu)}-KPAN-boroAla)",
    "readout.number": 7.48
  },
  {
    "compound": "CCCCc1ccc(-c2ccc(C(=O)N[C@H](CO)C(=O)N[C@H](C)C(=O)NCC(=O)N(C)[C@@H](Cc3ccc(O)cc3)C(=O)N[C@@H](C)C(=O)N[C@@H](CC(N)=O)C(=O)N[C@@H](C)B3OC4C[C@@H]5C[C@@H](C5(C)C)[C@]4(C)O3)cc2)cc1 (some centres unmarked) [Compound 227] ({Biphenylcarbonyl(4'-Bu)}-[dS][dA]G[NMeY]AN-X1)",
    "readout.number": 6.26
  },
  {
    "compound": "CCCCc1ccc(-c2ccc(C(=O)NCCC(=O)N[C@@H](CCCCN)C(=O)N[C@H](C(=O)N[C@@H](C)C(=O)N[C@@H](CC(N)=O)C(=O)N[C@@H](C)B(O)O)[C@@H](C)O)cc2)cc1 [Compound 204] ({Biphenylcarbonyl(4'-Bu)-βAla}-KTAN-boroAla)",
    "readout.number": 7.48
  },
  {
    "compound": "CCCCc1ccc(-c2ccc(C(=O)N[C@H]3CN[C@H](C(=O)N[C@H](C(=O)N[C@@H](C)C(=O)N[C@@H](CCCCN)C(=O)N[C@@H](C)B4OC5C[C@@H]6C[C@@H](C6(C)C)[C@]5(C)O4)[C@@H](C)O)C3)cc2)cc1 (some centres unmarked)",
    "readout.number": 5.74
  },
  {
    "compound": "CCCCCCCCCC(=O)N[C@@H](CN)C(=O)N[C@H](C(=O)N[C@@H](C)C(=O)N[C@@H](CCCCN)C(=O)N[C@@H](C)B1OC2C[C@@H]3C[C@@H](C3(C)C)[C@]2(C)O1)[C@@H](C)O (some centres unmarked) [Compound 169] (Decanoyl-[Dap]TAK-X1)",
    "readout.number": 8.41
  }
]
